Data origin, for the record: patent US7935674B2

Target: human SGLT2 (Homo sapiens)
Construct: expressed in transfected cells; host or cells: CHOK1 (Chinese hamster ovary) cells, kept under Geneticin selection
Sequence (P31639 whole entry): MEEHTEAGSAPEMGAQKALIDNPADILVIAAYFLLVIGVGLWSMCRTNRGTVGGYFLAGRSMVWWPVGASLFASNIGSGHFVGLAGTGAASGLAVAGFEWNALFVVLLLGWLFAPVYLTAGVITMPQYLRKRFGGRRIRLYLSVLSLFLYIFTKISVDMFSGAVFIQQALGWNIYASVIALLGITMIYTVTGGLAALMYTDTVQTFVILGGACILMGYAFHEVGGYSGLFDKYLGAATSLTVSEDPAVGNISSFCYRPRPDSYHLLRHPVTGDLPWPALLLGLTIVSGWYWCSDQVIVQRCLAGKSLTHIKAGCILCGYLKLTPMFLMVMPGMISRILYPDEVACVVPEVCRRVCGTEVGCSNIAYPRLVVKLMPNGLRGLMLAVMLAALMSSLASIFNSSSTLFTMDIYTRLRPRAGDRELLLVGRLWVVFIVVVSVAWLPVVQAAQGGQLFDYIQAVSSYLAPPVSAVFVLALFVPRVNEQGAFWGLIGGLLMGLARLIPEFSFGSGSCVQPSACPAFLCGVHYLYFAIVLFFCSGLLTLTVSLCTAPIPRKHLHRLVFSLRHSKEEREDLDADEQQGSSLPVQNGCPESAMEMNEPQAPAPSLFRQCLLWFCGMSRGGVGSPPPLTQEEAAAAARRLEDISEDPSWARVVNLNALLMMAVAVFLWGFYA
Experiment: Assay for SGLT2 inhibition (14C-AMG uptake in CHOK1 cells expressing human SGLT2)
Format: cell-based
Conditions: CHOK1 cells expressing human SGLT2; 14C-AMG uptake, 0.5 mM, 2 hours at 37° C.; read-out: IC50
Experimental: 1. Assay for SGLT2 Inhibition Compounds described in the above examples were used for the SGLT2 inhibition assay. CHOK1 cells expressing human SGLT2 were seeded in 24-well plates at a density of 400,000 cells/well in F-12 nutrient mixture (Ham's F-12) containing 10% fetal bovine serum, 400 μg/ml Geneticin, 50 units/ml sodium penicillin G (Gibco-BRL) and 50 μg/ml streptomycin sulfate. […] Specific uptake was normalized for the protein concentrations measured by the method of Bradford. […]
attribute.measured: pIC50
Answers are plain numbers, as −log10 of the molar value.

See these solved cases before continuing.
OC[C@H]1O[C@@H](n2cc(Cc3ccc4occc4c3)c3c(Cl)cc(Cl)cc32)[C@H](O)[C@@H](O)[C@@H]1O = 8.12
Cc1cccc2c1c(Cc1ccc3occc3c1)cn2[C@@H]1O[C@H](CO)[C@@H](O)[C@H](O)[C@H]1O = 8.21
OC[C@H]1O[C@@H](n2cc(Cc3ccc4occc4c3)c3c(Cl)c(F)ccc32)[C@H](O)[C@@H](O)[C@@H]1O = 7.96

Kindly review the next molecule as well.
Problem: State its pIC50: "CCc1ccc(Cc2cn([C@@H]3O[C@H](CO)[C@@H](O)[C@H](O)[C@H]3O)c3cccc(Cl)c23)s1"
Result: 8.68
